- tested.system: Short transient receptor potential channel 6 (Mus musculus)
- protocol: TRPC6 blockade by TRPC4 inhibitor hits – cell-based, HEK293, membrane potential dye, duplicate, selectivity assay for TRPC4 inhibitor project, confirmation (AID 434948)
- details: HEK293 TRPC6, membrane potential dye fluorescence, at 10 µM, stimulated with maximal-effect acetylcholine
Calls of active or inactive are those of the source.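 How the source made its calls: active means active in primary screen and both duplicates, each dropping signal beyond three positive-control SD with fluorescence still positive; inactive means the rest.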
Classes used: yes (1) (active), no (0) (inactive)

compound | group.label
Cc1ccc(C)c(-n2cc(CNCCCn3cccn3)c(-c3ccccc3)n2)c1 | no (0)
COc1ccc(C(CNC(=O)CSc2ccccc2C)N(C)C)cc1 (stereo unspecified) | no (0)
Cc1c(C(=O)NCCc2ccccc2)oc2ccccc12 | no (0)
CCN(CC)c1nc2ccccc2c(N)c1-c1ccccc1 | yes (1)
O=C(NCCc1ccccc1)c1cnc2ccccc2n1 | no (0)
O=C(NCCCN1CCN(CCCNC(=O)c2cccc(Cl)c2)CC1)c1cccc(Cl)c1 | no (0)
Cn1c(SCCOc2ccccc2F)nc2ccccc2c1=O | no (0)
c1ccc(C2(CN3CCNC[C@H]3Cc3cccc4ccccc34)CC2)cc1 | no (0)
COc1ccc(N2CCN(Cc3nc4ccccc4n3C)CC2)cc1 | no (0)
COc1ccc(-c2cc(C3CCN(c4cc(Cl)nc(N)n4)CC3)[nH]n2)cc1 | no (0)
c1ccc(CN2CCN(c3nc4ccccc4s3)CC2)cc1 | no (0)
